Target: Endothelin-1 receptor (Homo sapiens, UniProt P25101); further: assay procedure not described here
Sequence (P25101 whole entry): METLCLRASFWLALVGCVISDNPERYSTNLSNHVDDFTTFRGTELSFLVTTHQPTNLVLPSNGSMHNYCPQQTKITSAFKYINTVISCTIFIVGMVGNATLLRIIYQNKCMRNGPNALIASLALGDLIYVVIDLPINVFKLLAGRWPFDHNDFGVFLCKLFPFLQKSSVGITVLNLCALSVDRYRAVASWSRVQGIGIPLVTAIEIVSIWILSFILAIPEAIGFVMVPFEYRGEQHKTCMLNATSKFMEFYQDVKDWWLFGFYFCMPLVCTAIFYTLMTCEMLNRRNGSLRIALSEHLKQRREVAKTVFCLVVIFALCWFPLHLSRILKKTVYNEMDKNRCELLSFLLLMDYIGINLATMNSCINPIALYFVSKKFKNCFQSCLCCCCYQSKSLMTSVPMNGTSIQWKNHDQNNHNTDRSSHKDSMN
Reported AC50 by item:
valueType: AC50

>>> measured("CC(S)C(=O)NCC(=O)O (stereo not given) [TIOPRONIN]")
"> 30 µM"
>>> measured("COc1cc(N)c(Cl)cc1C(=O)NC1CCN(Cc2ccccc2)CC1 [CLEBOPRIDE]")
"> 30 µM"
>>> measured("C[N@+]1(CCF)[C@@H]2CC[C@H]1C[C@@H](OC(=O)C(O)(c1ccccc1)c1ccccc1)C2")
"> 30 µM"
>>> measured("CCCN(CCC)C(=O)Cc1c(-c2ccc(Cl)cc2)nc2ccc(Cl)cn12 [ALPIDEM]")
"> 10 µM"
>>> measured("Oc1ccc2c(c1)CC[C@H](c1ccccc1)[C@@H]2c1ccc(OCCN2CCCC2)cc1 [LASOFOXIFENE]")
"> 30 µM"

====

Reported AC50 by item:
Biological target: D(1A) dopamine receptor (Homo sapiens, UniProt P21728); further: assay procedure not described here
Sequence (P21728 whole entry): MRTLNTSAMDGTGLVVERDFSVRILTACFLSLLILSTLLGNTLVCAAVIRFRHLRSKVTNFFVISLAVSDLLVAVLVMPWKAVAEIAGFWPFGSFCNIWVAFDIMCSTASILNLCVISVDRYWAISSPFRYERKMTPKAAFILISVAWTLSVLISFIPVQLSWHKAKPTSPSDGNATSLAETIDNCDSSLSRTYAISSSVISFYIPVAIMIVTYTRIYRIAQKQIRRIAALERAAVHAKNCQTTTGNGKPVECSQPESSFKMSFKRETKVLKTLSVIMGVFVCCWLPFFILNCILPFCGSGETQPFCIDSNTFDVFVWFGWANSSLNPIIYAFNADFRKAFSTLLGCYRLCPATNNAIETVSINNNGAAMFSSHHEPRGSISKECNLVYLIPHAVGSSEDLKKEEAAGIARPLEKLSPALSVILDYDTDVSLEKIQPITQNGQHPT
Assay type: functional, cell-based
valueType: AC50

>>> measured("Nc1cc(-c2ccncc2)c[nH]c1=O [INAMRINONE]")
"> 10 µM"
>>> measured("NC1CCN(c2nc3c(cc2F)c(=O)c(C(=O)O)cn3-c2ccc(F)cc2F)C1 (centres undefined) [TOSUFLOXACIN]")
"> 30 µM"
>>> measured("CC(C)(C)C(=O)OCC(=O)[C@H]1CC[C@H]2[C@@H]3CCC4=CC(=O)CC[C@]4(C)[C@H]3CC[C@]12C [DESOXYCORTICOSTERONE PIVALATE]")
"> 10 µM"
>>> measured("C#C[C@]1(OC(C)=O)CC[C@H]2[C@@H]3CCC4=C/C(=N/O)CC[C@@H]4[C@H]3CC[C@@]21CC [NORGESTIMATE]")
"> 30 µM"
>>> measured("CCCN(CCC)C(=O)Cc1c(-c2ccc(Cl)cc2)nc2ccc(Cl)cn12 [ALPIDEM]")
"> 30 µM"
>>> measured("CCC(COC(=O)c1cc(OC)c(OC)c(OC)c1)(c1ccccc1)N(C)C (centres undefined) [TRIMEBUTINE]")
"> 30 µM"
>>> measured("C[C@@H](Oc1cc(-c2cnn(C3CCNCC3)c2)cnc1N)c1c(Cl)ccc(F)c1Cl [CRIZOTINIB]")
"> 30 µM"
>>> measured("CCC(C)C1(CC)C(=O)NC(=O)NC1=O (centres undefined) [BUTABARBITAL]")
"> 30 µM"
>>> measured("NC(=O)CN1CCCC1=O")
"> 30 µM"

====

List of AC50 tested on Progesterone receptor (Homo sapiens).
Sequence (P06401 whole entry): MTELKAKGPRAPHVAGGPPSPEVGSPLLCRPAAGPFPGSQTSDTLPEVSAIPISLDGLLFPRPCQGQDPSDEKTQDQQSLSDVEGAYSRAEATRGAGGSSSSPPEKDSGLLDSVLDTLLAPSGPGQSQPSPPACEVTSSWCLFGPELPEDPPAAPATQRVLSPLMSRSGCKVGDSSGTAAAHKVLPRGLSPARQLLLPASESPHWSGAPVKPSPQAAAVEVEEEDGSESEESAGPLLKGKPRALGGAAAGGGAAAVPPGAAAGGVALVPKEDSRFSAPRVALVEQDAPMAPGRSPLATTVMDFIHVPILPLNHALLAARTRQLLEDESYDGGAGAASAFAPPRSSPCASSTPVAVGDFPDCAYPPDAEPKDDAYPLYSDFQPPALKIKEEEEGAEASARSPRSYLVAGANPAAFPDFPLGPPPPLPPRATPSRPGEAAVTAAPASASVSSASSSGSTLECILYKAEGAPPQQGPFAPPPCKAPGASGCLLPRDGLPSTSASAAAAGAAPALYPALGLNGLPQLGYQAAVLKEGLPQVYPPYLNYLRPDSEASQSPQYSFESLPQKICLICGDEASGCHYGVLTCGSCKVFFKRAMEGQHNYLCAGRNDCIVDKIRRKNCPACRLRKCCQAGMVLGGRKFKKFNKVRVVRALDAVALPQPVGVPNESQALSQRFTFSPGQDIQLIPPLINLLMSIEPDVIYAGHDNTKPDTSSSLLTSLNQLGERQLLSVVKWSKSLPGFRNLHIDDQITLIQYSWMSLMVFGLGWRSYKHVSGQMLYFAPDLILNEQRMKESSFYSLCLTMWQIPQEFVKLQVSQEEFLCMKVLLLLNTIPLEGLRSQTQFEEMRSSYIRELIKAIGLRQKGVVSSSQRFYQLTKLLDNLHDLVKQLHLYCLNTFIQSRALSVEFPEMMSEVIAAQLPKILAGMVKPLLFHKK
valueType: AC50

>>> measured("Cn1c(=O)cc(N2CCC[C@@H](N)C2)n(Cc2ccccc2C#N)c1=O")
"> 30 µM"
>>> measured("CO[C@H]1/C=C/O[C@@]2(C)Oc3c(C)c(O)c4c(O)c(c(/C=N/N5CCN(C)CC5)c(O)c4c3C2=O)NC(=O)/C(C)=C\\C=C\\[C@H](C)[C@H](O)[C@@H](C)[C@@H](O)[C@@H](C)[C@H](OC(C)=O)[C@@H]1C")
"> 30 µM"
>>> measured("CN1CCN(C2=Nc3ccccc3Oc3ccc(Cl)cc32)CC1")
"> 30 µM"

====

Reported AC50 by item:
Target: Cholecystokinin receptor type A (Homo sapiens, UniProt P32238); further: assay procedure not described here
Sequence (P32238 whole entry): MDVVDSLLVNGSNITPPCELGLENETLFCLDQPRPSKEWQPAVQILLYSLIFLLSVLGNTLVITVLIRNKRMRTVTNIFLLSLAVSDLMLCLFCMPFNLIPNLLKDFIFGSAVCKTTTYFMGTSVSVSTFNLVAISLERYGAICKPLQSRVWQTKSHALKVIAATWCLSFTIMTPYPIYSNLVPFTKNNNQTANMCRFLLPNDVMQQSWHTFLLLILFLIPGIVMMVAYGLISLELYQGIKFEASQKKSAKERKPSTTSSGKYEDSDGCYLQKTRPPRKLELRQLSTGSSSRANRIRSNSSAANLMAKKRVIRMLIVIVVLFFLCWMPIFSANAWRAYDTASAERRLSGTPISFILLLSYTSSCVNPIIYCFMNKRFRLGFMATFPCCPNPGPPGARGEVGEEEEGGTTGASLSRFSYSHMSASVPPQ
valueType: AC50

>>> measured("Cc1cc(C(C)(C)C)cc(C)c1CC1=NCCN1")
"> 30 µM"
>>> measured("CC(C(=O)O)c1ccc(-c2ccccc2)c(F)c1 (centres undefined)")
"> 10 µM"
>>> measured("CCC[C@H](NC(=O)[C@@H]1[C@H]2CCC[C@H]2CN1C(=O)[C@@H](NC(=O)[C@@H](NC(=O)c1cnccn1)C1CCCCC1)C(C)(C)C)C(=O)C(=O)NC1CC1")
"> 30 µM"
>>> measured("CC(=O)OCC(=O)[C@@]1(O)[C@H](C)C[C@H]2[C@@H]3CCC4=CC(=O)C=C[C@]4(C)[C@@]3(F)[C@@H](O)C[C@@]21C [DEXAMETHASONE ACETATE]")
"> 30 µM"

====

Target: Progesterone receptor (Homo sapiens)
Assay type: functional
Reported AC50 by item:
valueType: AC50

>>> measured("COc1cc2nccc(Oc3ccc(NC(=O)C4(C(=O)Nc5ccc(F)cc5)CC4)cc3)c2cc1OC [CABOZANTINIB]")
"24 µM"
>>> measured("CN1C(C(=O)Nc2ccccn2)=C(O)c2ccccc2S1(=O)=O")
"> 10 µM"
>>> measured("CC(CCc1ccc(O)cc1)NCCc1ccc(O)c(O)c1 (centres undefined)")
"> 30 µM"
>>> measured("OC1(c2ccc(Cl)cc2)c2ccccc2C2=NCCN21 (centres undefined)")
"> 30 µM"
>>> measured("O=C(O)c1ccccc1Nc1cc(Cl)ccc1C(=O)O")
"> 30 µM"
>>> measured("C=CCNc1nc(NCC=C)nc(N2CCN(C(c3ccc(F)cc3)c3ccc(F)cc3)CC2)n1")
"> 30 µM"
>>> measured("CCN1CCN(Cc2ccc(Nc3ncc(F)c(-c4cc(F)c5nc(C)n(C(C)C)c5c4)n3)nc2)CC1")
"> 30 µM"
>>> measured("Cc1cccc(N2CC(CO)OC2=O)c1 (centres undefined)")
"> 30 µM"
>>> measured("CN(C)CCC[C@@]1(c2ccc(F)cc2)OCc2cc(C#N)ccc21")
"> 30 µM"

====

Reported AC50 by item:
Target: Prostaglandin G/H synthase 1 (Rattus norvegicus, UniProt Q63921); further: assay procedure not described here
Sequence (Q63921 whole entry): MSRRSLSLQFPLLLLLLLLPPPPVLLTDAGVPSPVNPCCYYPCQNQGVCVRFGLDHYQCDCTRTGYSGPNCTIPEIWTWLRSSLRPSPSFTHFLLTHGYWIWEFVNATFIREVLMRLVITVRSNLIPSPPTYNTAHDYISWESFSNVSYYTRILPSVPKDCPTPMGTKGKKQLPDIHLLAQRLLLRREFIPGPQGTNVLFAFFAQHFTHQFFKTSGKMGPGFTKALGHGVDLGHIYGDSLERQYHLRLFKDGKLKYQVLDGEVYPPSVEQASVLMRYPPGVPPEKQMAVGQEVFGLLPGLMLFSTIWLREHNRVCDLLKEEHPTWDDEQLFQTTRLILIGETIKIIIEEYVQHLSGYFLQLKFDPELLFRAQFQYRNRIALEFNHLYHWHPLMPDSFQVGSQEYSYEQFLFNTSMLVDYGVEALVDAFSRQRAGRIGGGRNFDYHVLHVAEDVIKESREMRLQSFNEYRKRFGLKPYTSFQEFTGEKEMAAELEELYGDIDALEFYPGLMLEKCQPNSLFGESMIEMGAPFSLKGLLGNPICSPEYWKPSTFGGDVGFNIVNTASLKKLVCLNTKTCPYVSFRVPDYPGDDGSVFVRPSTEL
Format: functional
valueType: AC50

>>> measured("Nc1ccc(S(=O)(=O)Nc2nccs2)cc1")
"> 30 µM"
>>> measured("CC(=O)[C@]1(O)Cc2c(O)c3c(c(O)c2[C@@H](O[C@H]2C[C@H](N)[C@H](O)[C@H](C)O2)C1)C(=O)c1ccccc1C3=O")
"> 30 µM"
>>> measured("Oc1ccc2c(c1)CC[C@H](c1ccccc1)[C@@H]2c1ccc(OCCN2CCCC2)cc1")
"5 µM"
>>> measured("Clc1ccc(C(Cn2ccnc2)OCc2ccsc2Cl)c(Cl)c1 (centres undefined)")
"12.4 µM"
>>> measured("CN1CCC(=C2c3ccccc3CCc3cccnc32)CC1")
"> 30 µM"
>>> measured("CCN(CC)CCNC(=O)c1c(C)[nH]c(/C=C2\\C(=O)Nc3ccc(F)cc32)c1C")
"> 30 µM"
>>> measured("C[C@@H](Oc1cc(-c2cnn(C3CCNCC3)c2)cnc1N)c1c(Cl)ccc(F)c1Cl")
"8.2 µM"
>>> measured("OC1(c2ccc(Cl)cc2)c2ccccc2C2=NCCN21 (centres undefined)")
"> 30 µM"
>>> measured("CCOC(=O)C1=C[C@]2(CC)CCCN3CCc4c(n1c1ccccc41)[C@@H]32")
"> 30 µM"

====

Target: Muscarinic acetylcholine receptor M3 (Homo sapiens); further: assay procedure not described here
Sequence (P20309 whole entry): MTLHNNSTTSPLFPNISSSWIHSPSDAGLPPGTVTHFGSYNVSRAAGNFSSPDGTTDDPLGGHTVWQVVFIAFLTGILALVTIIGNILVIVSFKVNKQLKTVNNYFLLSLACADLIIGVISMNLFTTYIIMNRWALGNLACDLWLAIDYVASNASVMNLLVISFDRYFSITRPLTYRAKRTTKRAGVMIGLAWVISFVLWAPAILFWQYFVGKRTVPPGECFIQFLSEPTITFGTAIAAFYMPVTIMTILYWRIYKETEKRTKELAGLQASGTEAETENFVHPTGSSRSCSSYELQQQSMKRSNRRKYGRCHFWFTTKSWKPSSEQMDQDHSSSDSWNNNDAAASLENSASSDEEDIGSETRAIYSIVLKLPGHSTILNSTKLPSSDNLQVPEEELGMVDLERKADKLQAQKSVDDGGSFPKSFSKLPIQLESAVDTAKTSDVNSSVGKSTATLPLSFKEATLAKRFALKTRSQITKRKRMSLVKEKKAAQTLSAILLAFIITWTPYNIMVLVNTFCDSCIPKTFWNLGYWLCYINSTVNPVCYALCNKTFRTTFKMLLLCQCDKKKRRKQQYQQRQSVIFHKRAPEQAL
valueType: AC50

>>> measured("CC(C)(C)C(=O)OCC(=O)[C@H]1CC[C@H]2[C@@H]3CCC4=CC(=O)CC[C@]4(C)[C@H]3CC[C@]12C [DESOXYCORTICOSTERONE PIVALATE]")
"> 30 µM"
>>> measured("Oc1ccc2c(c1)[C@@]13CCCC[C@@]1(O)[C@@H](C2)N(CC1CCC1)CC3")
"> 30 µM"
>>> measured("C=C[C@H]1C[N@@]2CC[C@H]1C[C@@H]2[C@@H](O)c1ccnc2ccc(OC)cc12")
"> 30 µM"
>>> measured("CCC[C@H](NC(=O)[C@@H]1[C@H]2CCC[C@H]2CN1C(=O)[C@@H](NC(=O)[C@@H](NC(=O)c1cnccn1)C1CCCCC1)C(C)(C)C)C(=O)C(=O)NC1CC1")
"> 30 µM"
>>> measured("CCCN(CCC)C(=O)Cc1c(-c2ccc(Cl)cc2)nc2ccc(Cl)cn12")
"> 30 µM"
>>> measured("CC(C)c1nc(N(C)S(C)(=O)=O)nc(-c2ccc(F)cc2)c1/C=C/[C@@H](O)C[C@@H](O)CC(=O)O")
"> 30 µM"
>>> measured("CC(=O)SC[C@@H](C)C(=O)N1CCC[C@H]1C(=O)N[C@@H](Cc1ccccc1)C(=O)O")
"> 30 µM"
>>> measured("Cc1cccc(N2CC(CO)OC2=O)c1 (stereo not drawn)")
"> 30 µM"

# credit: ChEMBL document CHEMBL5291721
